Recorded values, source ChEMBL document CHEMBL1155947.

Test: Cmax in rat at 0.5 mg/kg, po by cassette assay
Type: ADME, organism-based
Parameters: dose 0.5 mg/kg, route oral
Details: in vivo
Recorded endpoint: Cmax (ng/mL)
Quick note: give the figure in ng/mL, leave out the unit.

Problem: # query: Cmax of entry O=C(O)c1ccc(-c2ccc3c(c2)C[C@@H](NC[C@H](O)c2ccc(Cl)cc2)CC3)cc1
Solution: 65

----------
Test: Terminal half life in dog at 0.12 mg/kg, iv by cassette assay
Type: ADME, organism-based, Canis lupus familiaris
Parameters: dose 0.12 mg/kg, route intravenous
Conditions: in vivo
Recorded endpoint: half-life (h)
Write it as a number; the unit h goes unstated.

Problem: State the recorded half-life for this entry: O=C(O)COc1ccc2c(c1)C[C@@H](NC[C@H](O)c1cccc(Cl)c1)CC2
Solution: 3.8

----------
Assay: AUC (0 to 24 hrs) in monkey at 1.0 mg/kg, po by cassette assay
Type: ADME, organism-based, Macaca mulatta
Design: time < 24 hr, dose 1 mg/kg, route oral
Settings: rhesus monkey, plasma
Recorded endpoint: AUC(0-t) at 24 h (ng·h/mL)
The reply should contain only the number, in ng·h/mL.

Problem: What does the record list as AUC(0-t) at 24 h for COc1ccc(Oc2ccc3c(c2)C[C@@H](NC[C@H](O)c2ccc(Cl)nc2)CC3)cc1C(=O)O ?
Solution: 313

Problem: Param item = COc1ccc(Oc2ccc3c(c2)C[C@@H](NC[C@H](O)c2ccc(Cl)cc2)CC3)cc1C(=O)O ; retrieve measured AUC(0-t) at 24 h.
Solution: 1560

----------
Test: Oral bioavailability in monkey at 0.83 mg/kg
Type: ADME, organism-based, Macaca mulatta
Details: rhesus monkey, in vivo
Recorded endpoint: bioavailability (%)
# unit: % | format: bare number

Problem: Give the measured bioavailability of CCOC(=O)COc1ccc2c(c1)C[C@@H](NC[C@H](O)c1cccc(Cl)c1)CCC2 .
Solution: 35

----------
Test: Total clearance in monkey at 0.32 mg/kg, iv by cassette assay
Assay type: ADME, organism-based, Macaca mulatta
Parameters: dose 0.32 mg/kg, route intravenous
Details: rhesus monkey, in vivo
For each of the compounds below, state its clearance.
Field format: number, assumed mL/min/kg, no unit text.

Problem: What value of measured clearance is listed for COc1ccc(Oc2ccc3c(c2)C[C@@H](NC[C@H](O)c2ccc(Cl)cc2)CC3)cc1C(=O)O ?
Solution: 5.3

Problem: For the compound shown here, COc1ccc(Oc2ccc3c(c2)C[C@@H](NC[C@H](O)c2ccc(Cl)nc2)CC3)cc1C(=O)O , give the reported clearance.
Solution: 15.7

Problem: So what does the record say about clearance for O=C(O)c1ccc(-c2ccc3c(c2)C[C@@H](NC[C@H](O)c2ccc(Cl)cc2)CC3)cc1 ?
Solution: 6.7

----------
Experiment: Cmax in rat at 1.0 mg/kg, po by cassette assay
Type: ADME, organism-based
Design: dose 1 mg/kg, route oral
Settings: in vivo
Recorded endpoint: Cmax (ng/mL)
Return type: number; implicit unit ng/mL.

Problem: Which value of Cmax has been reported for COc1ccc(Oc2ccc3c(c2)C[C@@H](NC[C@H](O)c2ccc(Cl)nc2)CC3)cc1C(=O)O in the records?
Solution: 164

----------
For each record, write down the corresponding bioavailability.
Test: Bioavailability in dog at 0.1 mg/mL, iv by cassette assay
Assay type: ADME, organism-based, Canis lupus familiaris
Conditions: in vivo
Record the value in %, omitting the unit from your answer.

Problem: Find the recorded bioavailability belonging to O=C(O)COc1ccc(-c2ccc3c(c2)C[C@@H](NC[C@H](O)c2cccc(Cl)c2)CC3)cc1 and report it.
Solution: 48

Problem: // lookup bioavailability for O=C(O)c1cccc(Oc2ccc3c(c2)C[C@@H](NC[C@H](O)c2cccc(Cl)c2)CCC3)c1
Solution: 69

Problem: Return reported bioavailability; argument: O=C(O)c1ccc(-c2ccc3c(c2)C[C@@H](NC[C@H](O)c2cccc(Cl)c2)CC3)cc1
Solution: 71

Problem: # query: bioavailability of entry O=C(O)c1ccc(Oc2ccc3c(c2)C[C@@H](NC[C@H](O)c2cccc(Cl)c2)CC3)nc1
Solution: 61

Problem: Record request: bioavailability value, item O=C(O)c1cccc(Oc2ccc3c(c2)C[C@@H](NC[C@H](O)c2cccc(Cl)c2)CC3)c1
Solution: 81

----------
Assignment: determine reported clearance for the given molecules.
Test: Total clearance in dog at 0.1 mg/mL, iv by cassette assay
Assay type: ADME, organism-based, Canis lupus familiaris
Settings: in vivo
Give just the numeric value; mL/min/kg need not be written.

Problem: Looking for the measured clearance of O=C(O)c1ccc(Oc2ccc3c(c2)C[C@@H](NC[C@H](O)c2cccc(Cl)c2)CC3)nc1 , can you help?
Solution: 10.8

Problem: Please give the measured clearance for this molecule: O=C(O)COc1ccc(-c2ccc3c(c2)C[C@@H](NC[C@H](O)c2cccc(Cl)c2)CC3)cc1
Solution: 8.3

Problem: Which clearance is listed for O=C(O)c1cccc(Oc2ccc3c(c2)C[C@@H](NC[C@H](O)c2cccc(Cl)c2)CC3)c1 ?
Solution: 2.4

Problem: Reported clearance for O=C(O)c1ccc(-c2ccc3c(c2)C[C@@H](NC[C@H](O)c2cccc(Cl)c2)CC3)cc1 : what is it?
Solution: 1.2

Problem: If you can, please state the reported clearance value of O=C(O)c1cccc(Oc2ccc3c(c2)C[C@@H](NC[C@H](O)c2cccc(Cl)c2)CCC3)c1 .
Solution: 6.8

----------
Species: Homo sapiens
Assay: Ratio of EC50 for human cloned beta-1 adrenergic receptor to EC50 for human cloned beta3 adrenergic receptor
Recorded endpoint: Ratio EC50
Write the value as a bare number.

Problem: Would you kindly share the measured Ratio EC50 for O=C(O)c1cccc(Oc2ccc3c(c2)C[C@@H](NC[C@H](O)c2cccc(Cl)c2)CCC3)c1 ?
Solution: 35

Problem: // query Ratio EC50 value for entry Nc1cc(Oc2ccc3c(c2)C[C@@H](NC[C@H](O)c2cccc(Cl)c2)CC3)cc(C(=O)O)c1
Solution: 150

Problem: What value of Ratio EC50 has been reported for the following molecule? CC(C)Oc1cc(-c2ccc3c(c2)C[C@@H](NC[C@H](O)c2ccc(Cl)cc2)CC3)ccc1C(=O)O
Solution: 443

Problem: Given the molecule O=C(O)COc1ccc2c(c1)C[C@@H](NC[C@H](O)c1cccc(Cl)c1)CC2 , what is its reported Ratio EC50?
Solution: 38

Problem: For the molecule O=C(O)c1ccc(-c2ccc3c(c2)C[C@@H](NC[C@H](O)c2ccc(Cl)cc2)CC3)cc1 , what Ratio EC50 is on record?
Solution: 2410

Problem: What value of Ratio EC50 has been reported for the following molecule? O=C(O)c1ccc(-c2ccc3c(c2)C[C@@H](NC[C@H](O)c2ccc(Cl)cc2)CC3)c(F)c1
Solution: 700

Problem: What Ratio EC50 value was documented for this molecule, O=C(O)c1ccc(Oc2ccc3c(c2)C[C@@H](NC[C@H](O)c2cccc(Cl)c2)CC3)nc1 ?
Solution: 50

Problem: Ratio EC50 for O=C(O)c1cccc(Oc2ccc3c(c2)C[C@@H](NC[C@H](O)c2ccc(Cl)nc2)CC3)c1 ?
Solution: 34

----------
Experiment: Oral bioavailability in rat at 0.83 mg/kg
Assay type: ADME, organism-based
Details: in vivo
Recorded endpoint: bioavailability (%)
Your answer is read as %, so omit the unit and give the number.

Problem: Form field: reported bioavailability of CCOC(=O)COc1ccc2c(c1)C[C@@H](NC[C@H](O)c1cccc(Cl)c1)CCC2
Solution: 29

----------
Assay system Beta-1 adrenergic receptor (Homo sapiens); read-out recorded as EC50.

Problem: Recorded EC50 for O=C(O)c1ccc(-c2ccc3c(c2)C[C@@H](NC[C@H](O)c2ccc(Cl)cc2)CC3)c(F)c1 with Beta-1 adrenergic receptor (Homo sapiens), please?
Solution: 980 nM

Problem: Fill in the recorded EC50 for this molecule, with Beta-1 adrenergic receptor (Homo sapiens) as test system: O=C(O)c1ccc(-c2ccc3c(c2)C[C@@H](NC[C@H](O)c2cccc(Cl)c2)CC3)cc1
Sequence (P08588 whole entry): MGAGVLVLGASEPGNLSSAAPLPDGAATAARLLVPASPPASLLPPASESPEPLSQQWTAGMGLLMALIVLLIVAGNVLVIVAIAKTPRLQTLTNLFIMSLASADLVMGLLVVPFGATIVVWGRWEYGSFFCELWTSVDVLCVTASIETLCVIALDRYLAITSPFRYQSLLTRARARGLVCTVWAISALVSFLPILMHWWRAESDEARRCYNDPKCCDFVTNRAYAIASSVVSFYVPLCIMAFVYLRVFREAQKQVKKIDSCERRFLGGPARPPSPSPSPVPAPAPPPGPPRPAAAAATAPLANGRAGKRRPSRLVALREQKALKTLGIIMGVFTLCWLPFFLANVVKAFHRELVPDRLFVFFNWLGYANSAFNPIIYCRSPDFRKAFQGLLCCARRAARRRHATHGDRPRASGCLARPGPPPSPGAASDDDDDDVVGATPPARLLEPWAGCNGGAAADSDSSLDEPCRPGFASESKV
Solution: > 1000 nM

Problem: Fill in the recorded EC50 for this molecule, with Beta-1 adrenergic receptor (Homo sapiens) as test system: O=C(O)c1ccc(Oc2ccc3c(c2)C[C@@H](NC[C@H](O)c2cccc(Cl)c2)CC3)s1
Solution: 670 nM

Problem: Record CC(=O)Nc1cc(Oc2ccc3c(c2)C[C@@H](NC[C@H](O)c2cccc(Cl)c2)CC3)cc(C(=O)O)c1 : what is its EC50 with Beta-1 adrenergic receptor (Homo sapiens)?
Solution: 360 nM

Problem: What value of EC50 on Beta-1 adrenergic receptor (Homo sapiens) does O=C(O)c1ccc(Oc2ccc3c(c2)C[C@@H](NC[C@H](O)c2cccc(Cl)c2)CC3)nc1 have?
Solution: 70 nM

Problem: Hi! What's the reported EC50 for CC(C)Oc1cc(-c2ccc3c(c2)C[C@@H](NC[C@H](O)c2ccc(Cl)cc2)CC3)ccc1C(=O)O on Beta-1 adrenergic receptor (Homo sapiens)?
Solution: 310 nM

Problem: Give Beta-1 adrenergic receptor (Homo sapiens) EC50 for O=C(O)c1cccc(Oc2ccc3c(c2)C[C@@H](NC[C@H](O)c2ccc(Cl)nc2)CC3)c1
Solution: 140 nM

Problem: Form field: EC50 recorded for O=C(O)c1ccc(Oc2ccc3c(c2)C[C@@H](NC[C@H](O)c2cccc(Cl)c2)CCC3)cc1 with Beta-1 adrenergic receptor (Homo sapiens) (enter value)
Solution: > 100 nM

Problem: I'm curious: which EC50 was measured for O=C(O)c1cccc(Oc2ccc3c(c2)C[C@@H](NC[C@H](O)c2cccc(Cl)c2)CC3)c1 tested on Beta-1 adrenergic receptor (Homo sapiens)?
Solution: > 1000 nM

Problem: Enter reported EC50 observed with Beta-1 adrenergic receptor (Homo sapiens) for O=C(O)c1cccc(Oc2ccc3c(c2)C[C@@H](NC[C@H](O)c2cccnc2)CC3)c1
Solution: > 100 nM

Problem: Request body: readout EC50, system Beta-1 adrenergic receptor (Homo sapiens), query Cc1ccc([C@@H](O)CN[C@H]2CCc3ccc(-c4ccc(C(=O)O)cc4)cc3C2)cc1 . Return the value.
Solution: > 1000 nM

Problem: Short answer please: EC50, Beta-1 adrenergic receptor (Homo sapiens), entry O=C(O)c1cccc(Oc2ccc3c(c2)C[C@@H](NC[C@H](O)c2ccc(Cl)cc2)CC3)c1
Solution: 330 nM

Problem: For the record Cc1cc(C(=O)O)ccc1-c1ccc2c(c1)C[C@@H](NC[C@H](O)c1ccc(Cl)cc1)CC2 , what value of EC50 is listed for Beta-1 adrenergic receptor (Homo sapiens)?
Solution: 800 nM

Problem: Lab note: need EC50 for O=C(O)c1ccc(-c2ccc3c(c2)C[C@@H](NC[C@H](O)c2ccc(Cl)cc2)CC3)cc1F on Beta-1 adrenergic receptor (Homo sapiens), anyone have it?
Solution: 650 nM

Problem: Fill in the recorded EC50 for this molecule, with Beta-1 adrenergic receptor (Homo sapiens) as test system: O=C(O)c1cccc(Oc2ccc3c(c2)C[C@@H](NC[C@H](O)c2cccc(Cl)c2)CCC3)c1
Solution: 160 nM

Problem: Requested read-out EC50, target or system Beta-1 adrenergic receptor (Homo sapiens), entry N#Cc1ccc([C@@H](O)CN[C@H]2CCc3ccc(-c4ccc(C(=O)O)cc4)cc3C2)cc1
Solution: > 1000 nM

Problem: API: value(readout= EC50, system= Beta-1 adrenergic receptor (Homo sapiens), query= O=C(O)c1ccc(-c2ccc3c(c2)C[C@@H](NC[C@H](O)c2ccc(Cl)c(Cl)c2)CC3)cc1 )
Solution: > 1000 nM

Problem: # query: EC50 | item COc1ccc(Oc2ccc3c(c2)C[C@@H](NC[C@H](O)c2cccc(Cl)c2)CC3)cc1C(=O)O | system: Beta-1 adrenergic receptor (Homo sapiens)
Solution: > 1000 nM
